Origin of the recorded values: PubChem BioAssay (NCI)

system: HCT-116 colon; experiment: NCI-60 one-dose screen, 48 h (100 = growth as untreated, 0 = no growth, -100 = all killed); details: 10 µM unless noted
The panel holds about 83,000 compounds, 20% with a hit somewhere; the sample as a whole holds those more often. Calls of active or inactive are those of the source. The calls were made as follows: active = growth percent below 10; inactive = the rest.
Recorded growth by entry

Looking up NC(=O)NCCCC(N)C(=O)O (stereo not drawn) , I see its growth listed as 104% (inactive)

Looking up `O=C(Cc1ccccc1)c1ccc(O)c(Cl)c1` , I see its growth listed as 27% (inactive)

Looking up `N#CC(C#N)N=Nc1ccc(Cl)cc1` , I see its growth listed as 16.9% (inactive)

----------
tested on: CAKI-1 renal; assay: NCI-60 one-dose screen, 48 h; settings: 10 µM unless noted
The panel holds about 83,000 compounds, 20% with a hit somewhere; the sample as a whole holds those more often. Activity calls are given as the source filed them. The calls were made as follows: active = growth percent below 10; inactive = the rest.
Return exactly one item of TRUE for active, FALSE for inactive

Take a look at these entries with their results.
> print(dat)
                                   compound  classification
1  OC1COC(OCc2ccccc2)C(O)C1O (configuration not stated)           FALSE
2  COc1ccc(N/C=C/C2=[N+](C)c3ccccc3C2(C)C)c(OC)c1           FALSE
3  Nc1ncnc2c1ncn2C1OC(COP(=O)(O)O)C(O)C1O (configuration not stated)           FALSE
4                  N#CC(C#N)N=Nc1ccc(Cl)cc1            TRUE
5  OCC1OC(O)C(O)C(O)C1O (configuration not stated)           FALSE
6                      Nc1nc(N)c2[nH]cnc2n1           FALSE

(Q) Lab log entry: `CC(C)(O)C(=O)O` — outcome as called in the assay?
(A) FALSE

(Q) Lab log entry: `Nc1ccc2c(O)cc(S(=O)(=O)O)cc2c1` — outcome as called in the assay?
(A) FALSE

(Q) Lab log entry: `OCCN1CCCCCCC1` — outcome as called in the assay?
(A) FALSE

(Q) Lab log entry: `O=C(Cc1ccccc1)c1ccc(O)c(Cl)c1` — outcome as called in the assay?
(A) FALSE

(Q) Lab log entry: `ClCCOCCOc1ccc(C2CCCCC2)cc1` — outcome as called in the assay?
(A) FALSE

----------
tested on: HCT-116 colon; assay: NCI-60 one-dose screen, 48 h (100 = growth as untreated, 0 = no growth, -100 = all killed); conditions: 10 µM unless noted
About 83,000 compounds went through this panel and 20% of them were active in at least one assay; those are over-represented in the sample as a whole.
Recorded growth by entry
The reply should contain only the number, in %.

Reference set, count: 3
> print(dat)
                                   compound    studysystem  measurement
1  CC(=O)OC(C)C(=O)NCC(C)O (stereo not drawn)  HCT-116 colon         95.2
2                O=C(/C=C/c1ccccc1)c1ccccc1  HCT-116 colon         6.71
3                                        Cl  HCT-116 colon          104

Tested on HCT-116 colon, the item `Nc1cc(N)c(N)cc1N` showed growth equal to 0.84

----------
Recorded growth by entry
test system: OVCAR-3 ovarian; assay: NCI-60 one-dose screen, 48 h (100 = growth as untreated, 0 = no growth, -100 = all killed); conditions: 10 µM unless noted
About 83,000 compounds went through this panel and 20% of them were active in at least one assay; those are over-represented in the sample as a whole.
The reply should contain only the number, in %.

Reference set, count: 5
> print(dat)
                            substancesmiles  measurement
1          O=C1OC(c2ccccc2)=N/C1=C\c1ccccc1          111
2  COc1ccc2cc1Oc1ccc(cc1)C[C@H]1c3cc(c(OC)cc3CCN1C)Oc1c(OC)c(OC)cc3c1[C@H](C2)N(C)CC3         70.4
3  COc1ccc(N/C=C/C2=[N+](C)c3ccccc3C2(C)C)c(OC)c1         93.6
4                           CC1(C)COC(=S)N1          110
5                  CCOC(=O)c1c(C)cc(=O)oc1C          121

Pending compound:
Looking up `C/C(=C\c1ccccc1)c1ccccn1` , I see its growth listed as 106

----------
tested on: HT29 colon; experiment: NCI-60 one-dose screen, 48 h (100 = growth as untreated, 0 = no growth, -100 = all killed); settings: 10 µM unless noted
The panel holds about 83,000 compounds, 20% with a hit somewhere; the sample as a whole holds those more often.
valueKind: growth (%)
The reply should contain only the number, in %.

> print(dat)
                                    compound  measurement
 1  O=c1n(CC2CO2)c(=O)n(CC2CO2)c(=O)n1CC1CO1 (stereo not drawn)         70.3
 2        CCCCOc1ccc(Nc2cc(Cl)ccc2C(=O)O)cn1          115
 3                          CCc1cc(C)cc(O)c1         99.4
 4  COc1ccc(N/C=C/C2=[N+](C)c3ccccc3C2(C)C)c(OC)c1         87.4
 5  O=C(CO)C(O)C(O)C(O)C(O)CO (stereo not drawn)          109
 6  CC1=C/C(O)CC(=O)Cc2nc(co2)C(=O)N2CCC=C2C(=O)OC(C(C)C)C(C)/C=C\C(=O)NC/C=C\1 (stereo not drawn)         76.7
 7                O=C(/C=C/c1ccccc1)c1ccccc1         68.9
 8                Brc1ccc(SSc2ccc(Br)cc2)cc1         97.2
 9                      Nc1nc(N)c2[nH]cnc2n1          101
10                Fc1ccc([I+]c2ccc(F)cc2)cc1         38.2

Tested on HT29 colon, the item `C/C(=C\c1ccccc1)c1ccccn1` showed growth equal to 113

Tested on HT29 colon, the item `CC(C)NC(=O)N/C=C(\C#N)C(N)=O` showed growth equal to 107

Tested on HT29 colon, the item `c1ccc(CNCCNCc2ccccc2)cc1` showed growth equal to 108

----------
tested on: DU-145 prostate; assay: NCI-60 one-dose screen, 48 h (100 = growth as untreated, 0 = no growth, -100 = all killed); conditions: 10 µM unless noted
About 83,000 compounds went through this panel and 20% of them were active in at least one assay; those are over-represented in the sample as a whole. Activity calls are given as the source filed them. Rule for the calls: active = growth percent below 10; inactive = the rest.
Recorded growth by entry

> print(dat)
                                   molecule  valuekind       measurement
1  NC(=O)NCCCC(N)C(=O)O (configuration not stated)     growth   101% (inactive)
2  O=C1OC(C(O)C(O)CO)C(O)=C1O (configuration not stated)     growth   115% (inactive)
3  OC1COC(OCc2ccccc2)C(O)C1O (configuration not stated)     growth   105% (inactive)
4               CCCCOC(=O)/C=C\C(=O)NC(N)=O     growth  91.1% (inactive)
5         Cn1cnc([N+](=O)[O-])c1Sc1ncn[nH]1     growth   108% (inactive)
6                       C#CCOC(=O)Nc1ccccc1     growth   106% (inactive)

Pending molecule:
Looking up `Fc1ccc([I+]c2ccc(F)cc2)cc1` , I see its growth listed as 92.1% (inactive)

----------
System: UACC-257 melanoma
Test: NCI-60 one-dose screen, 48 h (100 = growth as untreated, 0 = no growth, -100 = all killed)
Conditions: 10 µM unless noted
Method: Cells are grown in 96 well plates and exposed to the test compound for 48 hours. Compounds are tested at a single concentration, which is 10^-5 M for most compounds. The reported endpoint is percent growth (GI% or GIPRCNT), where numbers from 0 - 100% represent growth inhibition, and numbers from -100% - 0 represent cell death. For example, a value of 40 represents 60% growth inhibition. A value of 0 means no net growth occurred over the course of the experiment. […]
The panel holds about 83,000 compounds, 20% with a hit somewhere; the sample as a whole holds those more often.
valueKind: growth (%)
The reply should contain only the number, in %.

Reference set, count: 8
> print(dat)
                                   molecule  valuekind  measurement
1          O=C1OC(c2ccccc2)=N/C1=C\c1ccccc1     growth         96.5
2  CC1=C/C(O)CC(=O)Cc2nc(co2)C(=O)N2CCC=C2C(=O)OC(C(C)C)C(C)/C=C\C(=O)NC/C=C\1 (stereo not given)     growth         75.4
3  COc1cc(C(O)C2C(=O)OCC2C2(c3ccc4c(c3)OCO4)SCCCS2)cc(OC)c1OC (stereo not given)     growth          104
4                        CCCCCCCCCCNC(=O)CI     growth         66.3
5                      Nc1nc(N)c2[nH]cnc2n1     growth         56.1
6              Cc1ccc(S(=O)(=O)c2ccccc2)cc1     growth          8.5
7                           CC1(C)COC(=S)N1     growth         99.6
8                                        Cl     growth          105

Looking up `O=C(Cc1ccccc1)c1ccc(O)c(Cl)c1` , I see its growth listed as 66.7

Looking up `O=C(O)CCCl` , I see its growth listed as 111

Looking up `Cc1cc(-c2cc(C)c(O)c(C)c2)cc(C)c1O` , I see its growth listed as 92

Looking up `C/C(=C\c1ccccc1)c1ccccn1` , I see its growth listed as 105

Looking up `Oc1ccc(Cc2ccccc2Cl)c(O)c1` , I see its growth listed as 93.2

Looking up CN(C)CC1CCCCCC(CN(C)C)C1=O (stereo not given) , I see its growth listed as 53.1

Looking up CC1CCC(C(C)C)C(NNC(N)=O)C1 (stereo not given) , I see its growth listed as 87.3

Looking up O=c1n(CC2CO2)c(=O)n(CC2CO2)c(=O)n1CC1CO1 (stereo not given) , I see its growth listed as 61.4

Looking up `O=CN1CCCCC1` , I see its growth listed as 104

Looking up `c1ccc2c(c1)OC1OC2Oc2ccccc21` , I see its growth listed as 101

Looking up `CCOC(=O)c1c(C)cc(=O)oc1C` , I see its growth listed as 101

Looking up OCC1OC(O)C(O)C(O)C1O (stereo not given) , I see its growth listed as 114
